Record form. Attribute: Selectivity index. Fill in for each entry.
Species on record: Homo sapiens
Assay: Selectivity Index, Ki for human dihydrofolate reductase/Ki for human thymidylate synthase

• O=C1OC(c2ccc(O)c(I)c2)(c2ccc(O)c(I)c2)c2c1ccc1ccccc21 = < 0.01
• O=C1OC(c2ccc(O)cc2)(c2ccc(O)c(Br)c2)c2cccc3cccc1c23 (stereo unspecified) = < 0.02
• O=C1OC(c2cc(Br)c(O)c(Br)c2)(c2cc(Br)c(O)c(Br)c2)c2c1ccc1ccccc21 = < 0.3
• O=C1OC(c2ccc(O)cc2)(c2ccc(O)cc2)c2c1ccc1ccccc21 = < 1
• O=C1OC(c2cc(Br)c(O)c(Br)c2)(c2cc(Br)c(O)c(Br)c2)c2cccc3cccc1c23 = 3

Batch request: Selectivity index for each of the following molecules.
1. O=C1OC(c2ccc(O)c(I)c2)(c2ccc(O)c(I)c2)c2cccc3cccc1c23
2. O=C1OC(c2ccc(O)c(Br)c2)(c2ccc(O)c(Br)c2)c2ccc(Cl)c3cccc1c23

["< 1", "< 0.05"]

Batch request: Selectivity index for each of the following molecules.
1. O=C1OC(c2ccc(O)c(F)c2)(c2ccc(O)c(F)c2)c2ccc(Cl)c3cccc1c23
2. O=C1OC(c2cc(Cl)c(O)c(Cl)c2)(c2cc(Cl)c(O)c(Cl)c2)c2cccc3cccc1c23
3. O=C1OC(c2ccc(O)c(Br)c2)(c2ccc(O)c(Br)c2)c2cccc3cccc1c23
4. O=C1OC(c2ccc(O)c(Br)c2)(c2ccc(O)c(Br)c2)c2c1ccc1ccccc21

["< 0.05", 5, 3, "< 0.2"]

----------
Target chain: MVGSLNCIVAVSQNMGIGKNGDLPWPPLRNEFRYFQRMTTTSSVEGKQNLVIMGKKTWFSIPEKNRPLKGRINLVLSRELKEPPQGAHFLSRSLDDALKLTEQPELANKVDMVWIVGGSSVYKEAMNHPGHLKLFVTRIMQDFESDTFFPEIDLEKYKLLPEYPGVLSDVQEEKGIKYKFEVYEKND
Please use Fulfilled for Ki under 10 µM and Not fulfilled for everything else, ties included.

Dear colleague, could you confirm whether Ki of O=C1OC(c2ccc(O)cc2)(c2ccc(O)c(Br)c2)c2cccc3cccc1c23 (stereo not drawn) falls below 10 µM? Thanks.
Fulfilled

----------
Test system: Listeria monocytogenes
Test: Antibacterial activity against Listeria monocytogenes 4
Format: functional
metricName: log10 MIC (log10 of the value in µg/mL)
The common logarithm of MIC in µg/mL is what is listed.

• O=C1OC(c2ccc(O)c(Cl)c2)(c2ccc(O)c(Cl)c2)c2cccc3cccc1c23 = 1.00
• O=C1OC(c2ccc(O)c(F)c2)(c2ccc(O)c(F)c2)c2ccc(Cl)c3cccc1c23 = 1.00
• O=C1OC(c2cc(Br)c(O)c(Br)c2)(c2cc(Br)c(O)c(Br)c2)c2cccc3cccc1c23 = 0.40
• O=C1OC(c2ccc(O)c(F)c2)(c2ccc(O)c(F)c2)c2ccc3ccccc3c21 = 1.40
• O=C1OC(c2ccc(O)c(Br)c2)(c2ccc(O)c(Br)c2)c2ccc(Cl)c3cccc1c23 = 0.40

Batch request: log10 MIC for each of the following molecules.
1. O=C1OC(c2cc(Br)c(O)c(Br)c2)(c2cc(Br)c(O)c(Br)c2)c2c1ccc1ccccc21
2. O=C(O)c1cn(C2CC2)c2cc(N3CCNCC3)c(F)cc2c1=O
3. O=C1OC(c2ccc(O)c(Br)c2)(c2ccc(O)c(Br)c2)c2cccc3cccc1c23
4. O=C1OC(c2ccc(O)cc2)(c2ccc(O)c(Br)c2)c2cccc3cccc1c23 (centres undefined)

1: 0.40; 2: 0.00; 3: 0.70; 4: 1.00

----------
Listed here: compounds with reported pKi for Thymidylate synthase (Homo sapiens, UniProt P04818).
pKi: −log10 of the molar value.

• O=C1OC(c2ccc(O)c(Br)c2)(c2ccc(O)c(Br)c2)c2cccc3cccc1c23 = 5.33
• O=C1OC(c2ccc(O)c(I)c2)(c2ccc(O)c(I)c2)c2cccc3cccc1c23 = < 3.88
• O=C1OC(c2ccc(O)cc2)(c2ccc(O)c(Br)c2)c2cccc3cccc1c23 (stereo unspecified) = < 3.88
• O=C1OC(c2ccc(O)cc2)(c2ccc(O)cc2)c2c1ccc1ccccc21 = < 3.88
• O=C1OC(c2cc(Br)c(O)c(Br)c2)(c2cc(Br)c(O)c(Br)c2)c2cccc3cccc1c23 = 5.49

Kindly consider the entry below.
Quick note, pKi for O=C1OC(c2ccc(O)c(I)c2)(c2ccc(O)c(I)c2)c2c1ccc1ccccc21 landed at < 3.61

----------
Record form. Attribute: Ratio Ki. Fill in for each entry.
Assay: Specificity Index, Ki for human thymidylate synthase/Ki for Lactobacillus casei thymidylate synthase

# annotated cases, reported Ratio Ki shown
- O=C1OC(c2ccc(O)c(I)c2)(c2ccc(O)c(I)c2)c2cccc3cccc1c23: > 4
- O=C1OC(c2ccc(O)cc2)(c2ccc(O)cc2)c2c1ccc1ccccc21: > 12
- O=C1OC(c2cc(Cl)c(O)c(Cl)c2)(c2cc(Cl)c(O)c(Cl)c2)c2cccc3cccc1c23: 3
- O=C1OC(c2cc(Br)c(O)c(Br)c2)(c2cc(Br)c(O)c(Br)c2)c2cccc3cccc1c23: 4

Batch request: Ratio Ki for each of the following compounds.
1. O=C1OC(c2ccc(O)cc2)(c2ccc(O)c(Br)c2)c2cccc3cccc1c23 (stereo unspecified)
2. O=C1OC(c2ccc(O)c(F)c2)(c2ccc(O)c(F)c2)c2ccc(Cl)c3cccc1c23
3. O=C1OC(c2ccc(O)c(Br)c2)(c2ccc(O)c(Br)c2)c2c1ccc1ccccc21
4. O=C1OC(c2ccc(O)c(I)c2)(c2ccc(O)c(I)c2)c2c1ccc1ccccc21

1: > 132; 2: > 136; 3: > 20; 4: > 123

Batch request: Ratio Ki for each of the following compounds.
1. O=C1OC(c2cc(Br)c(O)c(Br)c2)(c2cc(Br)c(O)c(Br)c2)c2c1ccc1ccccc21
2. O=C1OC(c2ccc(O)c(Br)c2)(c2ccc(O)c(Br)c2)c2ccc(Cl)c3cccc1c23
3. O=C1OC(c2ccc(O)c(Br)c2)(c2ccc(O)c(Br)c2)c2cccc3cccc1c23

1: > 144; 2: > 306; 3: 1

----------
Record form. Attribute: MIC. Fill in for each entry.
Test system: Staphylococcus saprophyticus
Assay: Antibacterial activity against Staphylococcus saprophyticus ATCC 15305
Assay type: functional
Include the unit after the number when you answer.

# annotated cases, reported MIC shown
- O=C1OC(c2ccc(O)c(Br)c2)(c2ccc(O)c(Br)c2)c2ccc(Cl)c3cccc1c23: 1 µg/mL
- O=C1OC(c2ccc(O)c(Br)c2)(c2ccc(O)c(Br)c2)c2cccc3cccc1c23: 5 µg/mL

Batch request: MIC for each of the following compounds.
1. O=C(O)c1cn(C2CC2)c2cc(N3CCNCC3)c(F)cc2c1=O [CIPROFLOXACIN]
2. O=C1OC(c2cc(Br)c(O)c(Br)c2)(c2cc(Br)c(O)c(Br)c2)c2c1ccc1ccccc21

1: 1 µg/mL; 2: 1 µg/mL

----------
Record form. Attribute: log10 of Ki. Fill in for each entry.
Target: Thymidylate synthase (Cryptococcus neoformans var. neoformans B-3501A, UniProt P0CS13)
Sequence (P0CS13 whole entry): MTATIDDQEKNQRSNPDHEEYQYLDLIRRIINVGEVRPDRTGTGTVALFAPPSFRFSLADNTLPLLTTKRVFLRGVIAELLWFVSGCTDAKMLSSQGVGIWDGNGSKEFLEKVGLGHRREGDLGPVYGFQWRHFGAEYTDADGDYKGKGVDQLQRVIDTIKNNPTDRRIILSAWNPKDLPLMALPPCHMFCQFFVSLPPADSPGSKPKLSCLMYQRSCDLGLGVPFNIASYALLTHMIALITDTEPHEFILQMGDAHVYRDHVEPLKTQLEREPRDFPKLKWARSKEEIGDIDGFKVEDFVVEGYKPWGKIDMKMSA
The common logarithm of Ki in µM is what is listed.

# annotated cases, reported log10 of Ki shown
• O=C1OC(c2cc(Br)c(O)c(Br)c2)(c2cc(Br)c(O)c(Br)c2)c2cccc3cccc1c23 = 0.60
• O=C1OC(c2ccc(O)c(I)c2)(c2ccc(O)c(I)c2)c2c1ccc1ccccc21 = 0.65
• O=C1OC(c2cc(Br)c(O)c(Br)c2)(c2cc(Br)c(O)c(Br)c2)c2c1ccc1ccccc21 = 1.11

Batch request: log10 of Ki for each of the following molecules.
1. O=C1OC(c2ccc(O)c(Br)c2)(c2ccc(O)c(Br)c2)c2ccc(Cl)c3cccc1c23
2. O=C1OC(c2ccc(O)c(I)c2)(c2ccc(O)c(I)c2)c2cccc3cccc1c23
3. O=C1OC(c2ccc(O)cc2)(c2ccc(O)cc2)c2ccc3ccccc3c21

0.61
1.20
-0.22

Batch request: log10 of Ki for each of the following molecules.
1. O=C1OC(c2ccc(O)c(F)c2)(c2ccc(O)c(F)c2)c2ccc3ccccc3c21
2. O=C1OC(c2ccc(O)cc2)(c2ccc(O)c(Br)c2)c2cccc3cccc1c23 (stereo unspecified)
3. O=C1OC(c2ccc(O)c(F)c2)(c2ccc(O)c(F)c2)c2ccc(Cl)c3cccc1c23

1: 0.54; 2: 0.72; 3: 0.81

Batch request: log10 of Ki for each of the following molecules.
1. O=C1OC(c2ccc(O)cc2)(c2ccc(O)cc2)c2c1ccc1ccccc21
2. O=C1OC(c2ccc(O)c(Br)c2)(c2ccc(O)c(Br)c2)c2cccc3cccc1c23

-0.40
1.11

# credit: ChEMBL document CHEMBL1137378
